- Test system: U2OS
- TEST_NAME: Incucyte cell viability with U2OS; note: unitless GR value; below 1 slowed growth and below 0 cell loss
- Type: toxicity, cell-based
- STATED_CONDITIONS: human, 6 h, 10 µM, compound concentration 10 uM, replicate number 2
Assignment: determine reported Growth Rate for the given compounds.

The following compounds have reported results that may help.
[
  {
    "COMPOUND": "CN1CCc2cc(Nc3ncc(C(F)(F)F)c(NCc4cc[nH]n4)n3)ccc2C1",
    "MEASUREMENT_TARGET": "U2OS",
    "MEASUREMENT_TYPE": "Growth Rate",
    "ENDPOINT_RESULT": 0.87
  },
  {
    "COMPOUND": "CN(C)C/C=C/C(=O)Nc1cccc(S(=O)(=O)N2CCC(NC(=O)c3n[nH]cc3NC(=O)c3c(Cl)cc(Cl)cc3Cl)CC2)c1",
    "MEASUREMENT_TARGET": "U2OS",
    "MEASUREMENT_TYPE": "Growth Rate",
    "ENDPOINT_RESULT": 0.35
  }
]

I'm hoping you can list Growth Rate for every compound here, please.
1. CC(=O)Oc1ccc2c(c1)[C@@]1(C)CCC[C@](C)(C(=O)OC(=O)[C@@]3(C)CCC[C@]4(C)c5cc(OC(C)=O)ccc5CC[C@@H]34)[C@@H]1CC2 [ACETYL PODOCARPIC ACID ANHYDRIDE]
2. C#Cc1cnc2[nH]cc(-c3cccc4c3CCN4C(=O)[C@@H]3CCCN3C#N)c2c1
3. CCN1CCN(Cc2ccc(NC(=O)c3ccc(C)c(Oc4ccnc5[nH]ccc45)c3)cc2C(F)(F)F)CC1.Cl.Cl.Cl.O
4. CCNc1ccc(-c2nn(-c3ccccc3C)c3c2C(C)Cc2nc(NC(=O)OC)sc2-3)cn1.O=C(O)C(F)(F)F (configuration not stated)
5. C[S+]([O-])c1ccc(-c2nc(-c3cccc(I)c3)c(-c3ccncc3)[nH]2)cc1 (configuration not stated)

1: 0.92; 2: 0.45; 3: 0.57; 4: 0.13; 5: 0.79

====

- Tested on: HEK-293T
- TEST_NAME: Incucyte cell viability with HEK293T; note: unitless GR value; below 1 slowed growth and below 0 cell loss
- Format: toxicity, cell-based
- STATED_CONDITIONS: human, 24 h, 10 µM, compound concentration 10 uM, replicate number 2
MEASUREMENT_TYPE: Growth Rate
Give bare numbers.

The following molecules have reported results that may help.
[
  {
    "COMPOUND_STRUCTURE": "CCN1/C(=C/C(C)=O)Sc2ccc(OC(C)=O)cc21",
    "ENDPOINT_RESULT": 0.67
  },
  {
    "COMPOUND_STRUCTURE": "Cl.Cl.N#Cc1ccc(O[C@@H]2c3ccccc3C[C@H]2N2CCC[C@@H](N)C2)c(Cl)c1",
    "ENDPOINT_RESULT": -0.04
  },
  {
    "COMPOUND_STRUCTURE": "Cc1cc(-c2cc3ncccc3c(OC[C@H]3CCCNC3)n2)ccc1N(C)C.O=C(O)C(F)(F)F",
    "ENDPOINT_RESULT": -0.18
  },
  {
    "COMPOUND_STRUCTURE": "Nc1ncc2c(n1)-c1c([nH]c3ccc(C4=CCOCC4)cc13)CCC2",
    "ENDPOINT_RESULT": 0.41
  },
  {
    "COMPOUND_STRUCTURE": "CC(=O)c1c(C)c2cnc(Nc3ccc(N4CCNCC4)cn3)nc2n(C2CCCC2)c1=O",
    "ENDPOINT_RESULT": 0.75
  },
  {
    "COMPOUND_STRUCTURE": "COc1ccc2nc3ccc(OC)cc3c(SCCCN)c2c1.Cl",
    "ENDPOINT_RESULT": 0.33
  }
]

I'm hoping you can list Growth Rate for every molecule here, please.
1. C=CC(=O)Nc1cccc(C)c1Nc1ncc2cc(-c3c(Cl)c(OC)cc(OC)c3Cl)ccc2n1
2. COc1ccccc1-c1cc(Nc2cccc(CS(N)(=O)=O)c2)ncn1
3. COc1cc(-c2cn(C)c(=O)c3cnccc23)c(OC)cc1CN(C)C
4. CCc1ccc(-c2ncn(CC3(F)CCN(C)CC3)c2-c2ccnc3[nH]ccc23)nc1

1: -0.26; 2: 0.33; 3: 0.77; 4: 0.69

Source: ChEMBL document CHEMBL5303304
